# TEST TARGET: PIK3CA_C242 (Homo sapiens)
# Construct: endogenous in cells
# PROCEDURE TEXT: Proteomic TE50 (IA-DTB / TMT mass spectrometry) in Jurkat cell lysate
# APPLIED CONDITIONS: 1 hour at rt, 7-point dose response
REPORTED ENDPOINT: IC50 (nM)

>  <MOLECULE>
C[C@H](/C=C\S(C)(=O)=O)NC(=O)C1(F)CCN(S(=O)(=O)c2ccc(N3CCN(C(=O)OC(C)(C)C)CC3)cc2-c2ccccc2Cl)CC1

>  <IC50 / nM>
430

$$$$
>  <MOLECULE>
COc1ccc(S(=O)(=O)N2CC[C@@](F)(C(=O)N[C@H](C)/C=C\S(C)(=O)=O)C[C@H]2C)c(-c2ccccc2Cl)c1

>  <IC50 / nM>
50

$$$$
>  <MOLECULE>
C[C@H](/C=C\S(C)(=O)=O)NC(=O)C1(F)CCN(S(=O)(=O)c2ccc(C3COC3)cc2-c2ccccc2Cl)CC1

>  <IC50 / nM>
468

$$$$

I: Cc1ccccc1-c1cc(C(C)C)ccc1S(=O)(=O)N1CCC(F)(C(=O)N[C@H](C)/C=C\S(C)(=O)=O)CC1
II: COc1cccc(-c2cc(N(C)C)ccc2S(=O)(=O)N2CCC(F)(C(=O)N[C@@H](C)/C=C\S(C)(=O)=O)CC2)c1 (racemic)
Incoming: Determine, for I and II , which has the greater value of IC50. Respond with the label that goes with your answer.
Outgoing: I

1: C[C@H](/C=C\S(C)(=O)=O)NC(=O)C1(F)CCN(S(=O)(=O)c2ccc(F)cc2-c2ccccc2Cl)CC1
2: CCc1ccc(S(=O)(=O)N2CCC(F)(C(=O)N[C@H](C)/C=C\S(C)(=O)=O)CC2)c(-c2ccccc2Cl)c1
Incoming: 1 or 2 : whose IC50 is greater? To answer, give the label that identifies your chosen option.
Outgoing: 1
(1: 620 nM, 2: 210 nM)

1: COc1ccc(S(=O)(=O)N2CCC(F)(C(=O)NC/C=C/S(C)(=O)=O)CC2)c(-c2ccccc2)c1
2: CCCCOc1cccc(-c2cc(Cl)ccc2S(=O)(=O)N2CCC(F)(C(=O)N[C@@H](C)/C=C\S(C)(=O)=O)CC2)c1
3: C[C@@H](/C=C\S(C)(=O)=O)NC(=O)C1(F)CCN(S(=O)(=O)c2ccc(Cl)cc2-c2cccc(OC3CCC3)c2)CC1
4: COc1cc(-c2ccccc2Cl)c(S(=O)(=O)N2CCC(F)(C(=O)N[C@H](C)/C=C\S(C)(=O)=O)CC2)cn1
Incoming: Task field, ranking: reported IC50, descending order. Your reply should list the labels following the order given in the request.
Outgoing: 3, 1, 2, 4

* * *

# TEST TARGET: PIK3CA_C242 (Homo sapiens, UniProt P42336)
# Construct: endogenous in cells
# Sequence (P42336 whole entry): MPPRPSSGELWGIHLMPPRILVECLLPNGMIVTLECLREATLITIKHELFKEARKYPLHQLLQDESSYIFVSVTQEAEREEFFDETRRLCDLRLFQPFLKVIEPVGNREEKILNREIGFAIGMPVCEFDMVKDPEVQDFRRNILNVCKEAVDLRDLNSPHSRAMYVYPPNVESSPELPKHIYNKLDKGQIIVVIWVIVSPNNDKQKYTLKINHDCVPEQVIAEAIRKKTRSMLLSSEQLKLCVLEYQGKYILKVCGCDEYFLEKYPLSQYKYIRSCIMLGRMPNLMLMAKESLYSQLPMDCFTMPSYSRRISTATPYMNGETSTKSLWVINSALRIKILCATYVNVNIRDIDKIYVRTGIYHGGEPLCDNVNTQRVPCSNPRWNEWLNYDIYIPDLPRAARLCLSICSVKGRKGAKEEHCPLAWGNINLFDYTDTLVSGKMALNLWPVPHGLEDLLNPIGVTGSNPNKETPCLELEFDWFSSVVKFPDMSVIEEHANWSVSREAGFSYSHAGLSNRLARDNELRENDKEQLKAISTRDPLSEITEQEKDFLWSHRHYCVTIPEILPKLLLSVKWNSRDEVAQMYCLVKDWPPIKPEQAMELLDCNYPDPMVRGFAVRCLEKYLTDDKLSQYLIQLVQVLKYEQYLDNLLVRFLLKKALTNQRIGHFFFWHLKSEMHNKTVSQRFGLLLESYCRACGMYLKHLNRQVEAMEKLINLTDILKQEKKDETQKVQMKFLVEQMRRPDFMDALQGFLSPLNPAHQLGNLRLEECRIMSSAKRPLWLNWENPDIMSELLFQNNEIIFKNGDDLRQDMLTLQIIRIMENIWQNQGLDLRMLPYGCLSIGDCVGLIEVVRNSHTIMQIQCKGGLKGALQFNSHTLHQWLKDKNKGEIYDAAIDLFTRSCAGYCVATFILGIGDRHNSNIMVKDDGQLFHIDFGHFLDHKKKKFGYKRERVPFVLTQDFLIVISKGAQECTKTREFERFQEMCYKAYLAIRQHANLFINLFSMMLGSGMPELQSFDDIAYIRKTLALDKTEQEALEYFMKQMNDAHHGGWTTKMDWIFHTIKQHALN
# Sequence (P27986 whole entry partner): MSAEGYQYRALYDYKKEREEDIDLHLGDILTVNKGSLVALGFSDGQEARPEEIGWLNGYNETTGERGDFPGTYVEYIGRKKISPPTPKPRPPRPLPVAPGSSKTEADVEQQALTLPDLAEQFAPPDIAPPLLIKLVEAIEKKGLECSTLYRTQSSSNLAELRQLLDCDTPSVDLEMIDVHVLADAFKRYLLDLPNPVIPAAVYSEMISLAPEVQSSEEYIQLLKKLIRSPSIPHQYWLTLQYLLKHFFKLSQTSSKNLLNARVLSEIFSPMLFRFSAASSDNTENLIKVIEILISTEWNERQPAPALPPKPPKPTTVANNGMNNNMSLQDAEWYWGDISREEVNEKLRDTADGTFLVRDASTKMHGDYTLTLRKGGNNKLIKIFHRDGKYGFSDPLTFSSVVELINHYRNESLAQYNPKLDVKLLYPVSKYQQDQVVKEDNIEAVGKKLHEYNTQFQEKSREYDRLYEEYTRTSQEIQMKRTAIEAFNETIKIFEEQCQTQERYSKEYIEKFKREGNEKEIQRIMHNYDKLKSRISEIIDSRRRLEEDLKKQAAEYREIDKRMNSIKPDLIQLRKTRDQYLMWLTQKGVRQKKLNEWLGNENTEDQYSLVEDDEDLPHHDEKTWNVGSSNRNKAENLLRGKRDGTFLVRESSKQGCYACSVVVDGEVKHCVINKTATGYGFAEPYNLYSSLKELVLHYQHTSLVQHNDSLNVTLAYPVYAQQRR
# PROCEDURE TEXT: Proteomic TE50 (IA-DTB / TMT mass spectrometry) in Jurkat cell lysate
# APPLIED CONDITIONS: 1 hour at rt, 7-point dose response
pIC50: −log10 of the molar value.
REPORTED ENDPOINT: pIC50

Record excerpt, results attached:
>  <STRUCTURE NOTATION>
COc1ccc(S(=O)(=O)N2CCC(F)(C(=O)N[C@@H](C)/C=C\S(C)(=O)=O)CC2)c(-c2ccccc2OC)c1

>  <pIC50>
5.96

$$$$
>  <STRUCTURE NOTATION>
CC[C@H](/C=C\S(C)(=O)=O)NC(=O)C1(F)CCN(S(=O)(=O)c2ccc(N(C)C)cc2-c2ccccc2Cl)CC1

>  <pIC50>
6.03

$$$$
>  <STRUCTURE NOTATION>
CC#Cc1cccc(-c2cc(Cl)ccc2S(=O)(=O)N2CCC(F)(C(=O)N[C@@H](C)/C=C\S(C)(=O)=O)CC2)c1

>  <pIC50>
7.02

$$$$

a: CC#Cc1cccc(-c2cc(Cl)ccc2S(=O)(=O)N2CCC(F)(C(=O)NC/C=C/S(C)(=O)=O)CC2)c1
b: COc1cccc(-c2cc(Cl)cnc2S(=O)(=O)N2CCC(F)(C(=O)N[C@@H](C)/C=C\S(C)(=O)=O)CC2)c1
Incoming: Among a and b , whose measured pIC50 is the smaller figure? // return label of chosen record
Outgoing: b

1: COc1cc(-c2ccccc2Cl)c(S(=O)(=O)N2CCC(F)(C(=O)NC/C=C/S(C)(=O)=O)CC2)cn1
2: C=C(C)c1ccc(S(=O)(=O)N2CCC(F)(C(=O)N[C@H](C)/C=C\S(C)(=O)=O)CC2)c(-c2ccccc2C)c1
Incoming: Of 1 and 2 , which one carries the higher reported pIC50? Label of pick, please.
Outgoing: 1
(1: 6.72, 2: 6.44)
